assay: NCI Yeast Anticancer Drug Screen. Data for the rad50 strain (AID 155);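 note: 0% = growth of vehicle-only cultures of the same strain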; settings: S. cerevisiae rad50 strain growth inhibition; at 5.0 µM (retest, dose inferred, filed as 0.5)
The panel holds about 79,000 compounds, 15% with a hit somewhere; the sample as a whole holds those more often. Calls of active or inactive are those of the source. Cut-off read from the data, not from the text of the source: active = growth inhibition above about 70%; inactive = the rest.
Log the outcome using a class from true (1) for active, false (0) for inactive

Answered examples (3):
>>> category_label("O=C1c2ccccc2C(=O)N1c1ccccc1")
"false (0)"
>>> category_label("CCOC(=O)CCc1ccc(OC)c(OC)c1")
"false (0)"
>>> category_label("C(=N\\Nc1ccc2ccccc2n1)/c1ccccn1.CC(=O)[O-].CC(=O)[O-].[Zn+2]")
"false (0)"

Returns: the outcome recorded for `CC(C)c1ccc(S(=O)(=O)c2ccc([N+](=O)[O-])cc2[N+](=O)[O-])cc1` in this assay.
true (1)

Returns: the outcome recorded for `COC(=O)c1cc(-c2ccccc2)[nH]c(=O)c1C#N` in this assay.
false (0)

Returns: the outcome recorded for `Cc1ccc(-n2cc(-c3ccc(Cl)cc3)c3c(N)ncnc32)cc1` in this assay.
false (0)

Returns: the outcome recorded for `C[n+]1c(-c2ccc(/C=C/C=N\NC(=O)c3ccc(C(=O)N/N=C\C=C\c4ccc(-c5cn6ccccc6[n+]5C)cc4)cc3)cc2)cn2ccccc21` in this assay.
false (0)

Returns: the outcome recorded for `Cc1cccc(C[P+](c2ccccc2)(c2ccccc2)c2ccccc2)c1` in this assay.
true (1)

Returns: the outcome recorded for `CN1CCN(CCOC(=O)N2c3ccccc3Sc3ccccc32)CC1` in this assay.
false (0)

Returns: the outcome recorded for OC1C2COc3nc4ccccc4n3C(O2)C1O (stereo not given) in this assay.
false (0)

Origin of values: PubChem BioAssay (NCI)
